- target-entity: Heat shock protein HSP 90-alpha (Homo sapiens)
- Assay type: functional, organism-based
Activity calls are given as the source filed them.
Listing of recorded AC50 by entry.
property-measured: AC50

molecule	assay-value
CCOc1ccccc1N1CCN(C(=O)c2cccc(-c3ccc(O)cc3)c2)CC1	3.3 µM (active)
COc1ccccc1-c1sc2cc3c(cc2c1-c1ccc(O)cc1)OCO3	8.22 µM (active)
CC(=O)N1CCN(c2ccc(OC[C@H]3CO[C@](Cn4ccnc4)(c4ccc(Cl)cc4Cl)O3)cc2)CC1 [KETOCONAZOLE]	0.435 µM (active)
CCC(=O)OCOc1ccc(/C=C2/CCC(CN(C)C)C2=O)cc1 (centres undefined)	2.85 µM (active)

###

As shown below, each of these molecules has a reported IC50 value.
- target-entity: Glyceraldehyde-3-phosphate dehydrogenase (Homo sapiens, UniProt P04406)
- Sequence (P04406 whole entry): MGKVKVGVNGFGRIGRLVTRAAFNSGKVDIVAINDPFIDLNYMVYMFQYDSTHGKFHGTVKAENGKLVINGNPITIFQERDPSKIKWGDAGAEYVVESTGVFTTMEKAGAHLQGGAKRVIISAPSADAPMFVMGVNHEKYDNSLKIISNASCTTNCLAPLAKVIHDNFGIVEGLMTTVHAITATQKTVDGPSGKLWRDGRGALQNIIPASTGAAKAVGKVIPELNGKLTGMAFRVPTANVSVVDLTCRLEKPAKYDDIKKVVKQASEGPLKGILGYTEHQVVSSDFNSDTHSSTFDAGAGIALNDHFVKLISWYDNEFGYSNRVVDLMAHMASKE

smiles-str	IC50
COCCn1c(C)cc(C(=O)CSc2ccc(NC(C)=O)cc2)c1C	> 100 µM (not active)
CCN1CCN(C2=C(Cl)C(=O)N(c3ccc([N+](=O)[O-])cc3)C2=O)CC1	> 100 µM (not active)
NNC(=O)c1cc(-c2ccc(Cl)cc2Cl)n[nH]1	> 100 µM (not active)
CCn1c(=O)n(CC)c(=O)n([C@@H](Cc2ccccc2)C(=O)O)c1=O	> 100 µM (not active)
O=C(c1ccc(N2CCN(C(=O)c3ccccc3Br)CC2)cc1)c1cccc(F)c1	> 100 µM (not active)
COc1ccccc1C(=O)Nc1cnc2ccccc2c1	> 10 µM (inconclusive)

###

Recorded EC50, one value per entry.
- System: Streptococcus sp. 'group A'
- experiment-notes: Streptococcus pyogenes SK(-)GAS viability under kanamycin – luminescence, BacTiterGlo, confirmation, counter-screen for streptokinase expression inhibitor project, dose response (AID 1900)
- Format: functional, organism-based
Activity calls are given as the source filed them.

molecule	EC50
CCOc1ccc(NC(S)=NN=C(S)Nc2cccc(C(F)(F)F)c2)cc1	24.4 µM (active)
Clc1ccc(-c2cc3ccccc3nc2N2CCCC2)cc1	8.89 µM (active)
COc1ccc(C2CC(c3cccs3)=NN2C(=O)CSc2nc(O)c3cnn(-c4ccccc4)c3n2)cc1 (stereo not drawn)	3 µM (active)
Cc1ccc(/N=C/c2cccc(O)c2O)c(C)c1	> 150 µM (not active)
COc1ccccc1CNC(=O)c1ccc(-c2ccccc2Cl)o1	15.3 µM (active)
CC(Oc1ccc(Cl)cc1Cl)C(=O)Nc1ccc(S(=O)(=O)Nc2cnc3ccccc3n2)cc1 (stereo not drawn)	2.45 µM (active)
CC(C)c1c(C(=O)N/N=C/c2cccc(OCc3ccccc3)c2)nnn1-c1nonc1N	8.03 µM (active)
Cc1nn(C)c(Cl)c1CN1CCCC(C(=O)Nc2ccc(-c3cscn3)cc2)C1 (stereo not drawn)	> 150 µM (not active)

###

- target-entity: High affinity choline transporter 1 (Homo sapiens)
- Sequence (Q9GZV3 whole entry): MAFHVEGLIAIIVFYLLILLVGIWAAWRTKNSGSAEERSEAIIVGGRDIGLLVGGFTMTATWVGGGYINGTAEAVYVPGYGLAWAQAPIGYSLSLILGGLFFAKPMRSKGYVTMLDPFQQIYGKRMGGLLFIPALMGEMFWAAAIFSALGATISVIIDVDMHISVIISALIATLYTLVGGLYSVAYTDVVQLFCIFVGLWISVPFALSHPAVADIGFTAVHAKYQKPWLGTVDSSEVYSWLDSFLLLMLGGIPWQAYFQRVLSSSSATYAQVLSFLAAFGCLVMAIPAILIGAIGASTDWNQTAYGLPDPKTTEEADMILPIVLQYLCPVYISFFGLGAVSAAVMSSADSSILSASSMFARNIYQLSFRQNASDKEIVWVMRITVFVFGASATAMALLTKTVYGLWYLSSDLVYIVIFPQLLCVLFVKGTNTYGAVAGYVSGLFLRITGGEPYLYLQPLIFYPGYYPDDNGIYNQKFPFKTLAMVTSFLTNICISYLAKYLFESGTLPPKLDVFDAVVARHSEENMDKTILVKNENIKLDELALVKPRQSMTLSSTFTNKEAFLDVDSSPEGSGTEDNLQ
- experiment-notes: human choline transporter blockers, potency – cell-based, 5-point CRC, membrane potential dye, dose response (AID 504840)
- Assay type: functional
Activity calls are given as the source filed them.
IC50 values, listed per item
property-measured: IC50

compound	target-entity	assay-value
CC/C(=C(/CC)c1ccc(O)cc1)c1ccc(O)cc1 [DIETHYLSTILBESTROL]	High affinity choline transporter 1 (Homo sapiens)	12.6 µM (active)
CCn1c(SCc2nc(-c3ccc(Cl)cc3)no2)nnc1-c1ccco1	High affinity choline transporter 1 (Homo sapiens)	15.2 µM (active)
COC(=O)C(C)Sc1nc2c(c(=O)[nH]c(=O)n2C)n1CCCc1ccccc1 (stereo not given)	High affinity choline transporter 1 (Homo sapiens)	12.6 µM (active)
Cc1ccc(N2C(=O)/C(=C\NNc3ccc(S(=O)(=O)N4CCOCC4)cc3[N+](=O)[O-])c3ccccc3C2=O)c(C)c1	High affinity choline transporter 1 (Homo sapiens)	12.3 µM (active)
CCn1c(SCc2nc(-c3ccccc3)no2)nnc1-c1cccs1	High affinity choline transporter 1 (Homo sapiens)	15.1 µM (active)
